Provenance of the data: patent US10184116B2

The entries below come with measured Relative luminescence activity, h-CTZ, Imax values attached.
- PROTOCOL DESCRIPTION: Substrate specificity of WNanoKAZ mutants, crude enzyme solution (Example 11)
- Type: biochemical
- RUN CONDITIONS: Imax

Here's what some known entries look like.
MOLECULE	RESULT
KAZ: 19 kDa protein of native Oplophorus luciferase having luminescence activity; SEQ ID NO: 2 (protein, listed as Oplophorus gracilirostris) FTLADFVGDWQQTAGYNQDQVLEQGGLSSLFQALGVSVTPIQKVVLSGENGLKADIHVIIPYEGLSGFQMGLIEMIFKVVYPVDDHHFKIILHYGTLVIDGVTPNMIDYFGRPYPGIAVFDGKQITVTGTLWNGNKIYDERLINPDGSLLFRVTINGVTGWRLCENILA	1.2
WNanoKAZ-I138Y: single amino acid-substituted WNanoKAZ mutant I138Y; SEQ ID NO: 14 (protein) FTLADFVGDWQQTAGYNQDQVLEQGGLSSLFQALGVSVTPIQKVVLSGENGLKADIHVIIPYEGLSGFQMGLIEMIFKVVYPVDDHHFKVILHYGTLVIDGVTPNMIDYFGRPYEGIAVFDGKKITVTGTLWNGNKIYDERLINPDGSLLFRVTINGVTGWRLCERILA	35

Alright, here's another molecule for you.
Asked: Look up Relative luminescence activity, h-CTZ, Imax for this molecule: WNanoKAZ-R166N: single amino acid-substituted WNanoKAZ mutant R166N; SEQ ID NO: 16 (protein) FTLADFVGDWQQTAGYNQDQVLEQGGLSSLFQALGVSVTPIQKVVLSGENGLKADIHVIIPYEGLSGFQMGLIEMIFKVVYPVDDHHFKVILHYGTLVIDGVTPNMIDYFGRPYEGIAVFDGKKITVTGTLWNGNKIIDERLINPDGSLLFRVTINGVTGWRLCENILA
Given back: 43
